measurement_target: T1, TP-51 peptide (aa 352-414 of SEQ ID NO:1) (human)
T1 construct: Synthetic peptide (Pepscan)
T1 peptide: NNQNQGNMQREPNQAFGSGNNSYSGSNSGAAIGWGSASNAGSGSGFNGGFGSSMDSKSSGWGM
experiment_notes: SPR 8K, mAb captured, TP-51 injected; IgG1

[
  {
    "binder": "hACI-7069-633B12-Ab1_H16L14 (IgG1) (antibody, V domains shown, Human IgG1 / kappa) VH: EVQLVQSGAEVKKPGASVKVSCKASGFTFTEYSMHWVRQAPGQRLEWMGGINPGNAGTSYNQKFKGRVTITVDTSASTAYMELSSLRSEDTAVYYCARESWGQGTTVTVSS VL: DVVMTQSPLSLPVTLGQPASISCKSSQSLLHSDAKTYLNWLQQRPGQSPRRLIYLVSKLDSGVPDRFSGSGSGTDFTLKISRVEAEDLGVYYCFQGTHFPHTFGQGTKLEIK",
    "unit_info": "nM",
    "Kd": 6.4
  }
]

Taken from patent US20230322908A1.
